For each record, write down the corresponding IC50.
Molecular target: Integrin alpha-4/beta-1 (Homo sapiens, UniProt P05556+P13612)
Sequence (P05556 whole entry): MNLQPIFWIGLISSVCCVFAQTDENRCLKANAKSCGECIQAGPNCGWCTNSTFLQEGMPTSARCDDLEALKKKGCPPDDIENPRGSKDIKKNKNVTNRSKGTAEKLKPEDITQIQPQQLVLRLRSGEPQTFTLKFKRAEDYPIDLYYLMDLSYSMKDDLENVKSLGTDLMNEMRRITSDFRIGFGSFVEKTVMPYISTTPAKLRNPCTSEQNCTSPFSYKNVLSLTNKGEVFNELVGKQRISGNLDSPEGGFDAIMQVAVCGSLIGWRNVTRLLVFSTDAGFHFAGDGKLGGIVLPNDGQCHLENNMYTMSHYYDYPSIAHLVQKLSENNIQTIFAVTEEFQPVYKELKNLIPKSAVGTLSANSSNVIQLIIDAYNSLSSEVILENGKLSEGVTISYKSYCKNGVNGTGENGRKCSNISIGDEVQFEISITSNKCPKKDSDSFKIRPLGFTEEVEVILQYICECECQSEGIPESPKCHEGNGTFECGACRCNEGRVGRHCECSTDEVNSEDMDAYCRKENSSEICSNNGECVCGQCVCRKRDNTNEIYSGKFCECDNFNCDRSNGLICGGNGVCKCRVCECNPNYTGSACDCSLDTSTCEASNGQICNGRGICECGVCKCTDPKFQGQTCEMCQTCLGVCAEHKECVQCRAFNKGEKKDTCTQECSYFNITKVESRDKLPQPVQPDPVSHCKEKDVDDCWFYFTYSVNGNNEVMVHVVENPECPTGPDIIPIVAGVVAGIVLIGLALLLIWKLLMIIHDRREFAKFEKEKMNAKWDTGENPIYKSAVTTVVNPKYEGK
Sequence (P13612 whole entry): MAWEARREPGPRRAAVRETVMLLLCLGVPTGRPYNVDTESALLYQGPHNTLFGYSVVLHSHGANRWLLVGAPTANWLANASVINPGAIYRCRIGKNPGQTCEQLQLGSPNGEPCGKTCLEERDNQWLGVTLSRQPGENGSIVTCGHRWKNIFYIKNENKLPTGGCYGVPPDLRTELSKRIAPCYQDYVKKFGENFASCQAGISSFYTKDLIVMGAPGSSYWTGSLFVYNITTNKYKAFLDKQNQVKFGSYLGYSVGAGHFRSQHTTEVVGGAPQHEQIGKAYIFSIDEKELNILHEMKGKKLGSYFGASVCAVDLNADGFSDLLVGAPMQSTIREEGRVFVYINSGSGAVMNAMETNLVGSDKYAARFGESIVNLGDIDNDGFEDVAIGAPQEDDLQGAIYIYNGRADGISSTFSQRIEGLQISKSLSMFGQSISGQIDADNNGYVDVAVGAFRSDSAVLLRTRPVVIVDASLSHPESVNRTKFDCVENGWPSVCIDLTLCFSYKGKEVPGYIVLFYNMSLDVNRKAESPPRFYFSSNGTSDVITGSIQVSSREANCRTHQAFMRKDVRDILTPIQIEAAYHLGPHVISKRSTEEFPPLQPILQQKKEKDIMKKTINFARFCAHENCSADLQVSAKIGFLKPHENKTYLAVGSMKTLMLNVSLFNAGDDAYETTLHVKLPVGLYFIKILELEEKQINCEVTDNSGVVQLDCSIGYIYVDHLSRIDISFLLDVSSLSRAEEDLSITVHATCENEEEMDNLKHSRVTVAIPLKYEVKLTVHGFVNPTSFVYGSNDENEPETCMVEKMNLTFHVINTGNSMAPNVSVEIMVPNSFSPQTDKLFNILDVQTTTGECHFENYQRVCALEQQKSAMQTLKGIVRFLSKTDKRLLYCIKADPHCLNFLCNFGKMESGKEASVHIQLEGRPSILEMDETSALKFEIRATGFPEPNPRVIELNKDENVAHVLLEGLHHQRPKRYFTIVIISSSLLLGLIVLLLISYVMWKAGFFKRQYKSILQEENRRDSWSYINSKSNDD
Assay: Inhibition of europium labeled human VCAM1/Fc chimera binding to human VLA-4 alpha-4-beta-1 expressed in Chinese hamster 4B4 cells by fluorimetric assay
Type: cell-based
Give bare numbers, in nM.

Please review the entries below; each comes with its answer.
>>> readout_number("O=C(Nc1ccc(CC(=O)N2C[C@@H](F)C[C@H]2CO[C@H]2CC[C@H](C(=O)O)CC2)cc1Cl)c1nsc2ccccc12")
2.7
>>> readout_number("Cc1c(F)cccc1Nc1nc2ccc(CC(=O)N3C[C@@H](F)C[C@H]3CO[C@H]3CC[C@H](C(=O)O)CC3)c(F)c2o1")
47

Look up IC50 for the entries below, preserving their order.
1. O=C(Nc1ccc(CC(=O)N2C[C@@H](F)C[C@H]2CO[C@H]2CC[C@H](C(=O)O)CC2)cc1Cl)c1c[nH]c2ccccc12
2. O=C(Nc1cc(F)c(CC(=O)N2C[C@@H](F)C[C@H]2CO[C@H]2CC[C@H](C(=O)O)CC2)cc1Cl)c1nccc2ccccc12

0.53
32
